Target: T1, hTNFRSF12 amino acids a28-80-M50A-hIgG1-Fc (human)
T1 construct: TWEAKR-Fc mutein, coated on the ELISA plate; also called TPP-1988
Assay: ELISA: TWEAKR-Fc construct coated at 62 ng/ml, biotinylated IgG titrated from 100 nM; token + marks IC50 of 1 to […] pM

binder	binding result
PDL-192(TPP-1104) (antibody, human IgG1, kappa, V domains shown, human IgG1; variable domains from WO2009/020933 with a human IgG1 constant region added; biotinylated IgG in the ELISA) VH: QVELVESGGGLVQPGGSLRLSCAASGFTFSSYWMSWVRQAPGKGLEWVAEIRLKSDNYATHYAESVKGRFTISRDDSKNSLYLQMNSLRAEDTAVYYCTGYYADAMDYWGQGTLVTVSS VL: DIQMTQSPSSLSASVGDRVTITCRASQSVSTSSYSYMHWYQQKPGKAPKLLIKYASNLESGVPSRFSGSGSGTDFTLTISSLQPEDFATYYCQHSWEIPYTFGGGTKVEIKR	binds
TPP-2090 (antibody, V domains shown, human IgG1; also called anti-TWEAKR AK-1) VH: EVQLLESGGGLVQPGGSLRLSCAASGFTFSPYPMIWVRQAPGKGLEWVSYISPSGGSTHYADSVKGRFTISRDNSKNTLYLQMNSLRAEDTAVYYCARGGDTYFDYFDYWGQGTLVTVSS VL: DIQMTQSPSSLSASVGDRVTITCRASQSISGYLNWYQQKPGKAPKLLIYQASSLQSGVPSRFSGSGSGTDFTLTISSLQPEDFATYYCQQSYTSPFITFGQGTKVEIKR	binds
18.3.3(TPP-2193) (antibody, mouse IgG2a, kappa, V domains shown, murine IgG2a; variable domains from WO2009/020933 with a murine IgG2 constant region added; biotinylated IgG in the ELISA) VH: EVKLGESGGGLVQPGGSMKLSCVASGFPFTKYWMNWVRQSPEKGLEWVAEIRLKSDNYATHYAESAKGRFTISRDDSRSSVYLQMNNLRAEDTAIYYCSPTYADTMDYWGQGTSVTVSS VL: DIVLTQSPASLAVSLGQRATISCKASQSVSTSTYSYMQWYQQRPGQSPKLLIKYASKLDSGVPARFSGSGSGTDFTLNIHPVEEEDTATYYCQHSWELPYTFGGGTRLEIKR	binds
